Listed here are compounds together with their documented IC50.
# protocolNotes: Binding potency against SP receptor in bovine caudate using [3H]- as radioligand
recordedEndpoint: IC50 (µM)

smilestext=Clc1ccccc1CN[C@H]1C2CCN(CC2)[C@H]1C(c1ccccc1)c1ccccc1 recordedendpoint=IC50 u=µM obsvalue=0.056
smilestext=c1ccc(CN[C@H]2C3CCN(CC3)[C@H]2C(c2ccccc2)c2ccccc2)cc1 recordedendpoint=IC50 u=µM obsvalue=0.11
